experiment-summary: reversal of MRP1-mediated doxorubicin resistance, pilot screen, H69AR cells, doxorubicin co-treatment (AID 601)
measurement-context: H69AR cells + 2 uM doxorubicin, CellTiter-Glo, 72 h; measured here: viability with 2 uM doxorubicin; at 10 µM; stronger effect = lower value
Peptide text beside a SMILES is read from it. * marks the point of attachment. Boc = CC(C)(C)OC(=O)*

molecule: COc1ccccc1C(=O)N1CCN(C(=O)c2ccncc2)CC1
viability: 89.2%
--
molecule: CN(Cc1cccs1)CC(O)COCc1ccco1 (stereo not drawn)
viability: 93.9%
--
molecule: O=C(Nc1ccccc1C(=O)NCC1CCCO1)c1ccco1 (stereo not drawn)
viability: 100%
--
molecule: CCN1CCN(c2ncnc3c2oc2nc(C)c4c(c23)CC(C)(C)OC4)CC1
viability: 98.1%
--
molecule: Cc1ncoc1C(=O)Nc1ccccc1C(N)=O
viability: 85.5%
--
molecule: Cc1ccccc1CN1CCNC1=O
viability: 81.9%
--
molecule: COCCn1c(NCc2ccc(C)cc2)nc2c1c(=O)[nH]c(=O)n2C
viability: 99.5%
--
molecule: O=S(=O)(NCC1CCCO1)c1cc(Cl)ccc1Br (stereo not drawn)
viability: 94.1%
--
molecule: COC(=O)c1c(N)nc(C)n1-c1ccc(OC)cc1
viability: 91.5%
--
molecule: O=C(CSc1ncn[nH]1)c1ccco1
viability: 98.5%
--
molecule: CCOc1ccccc1CNC(=O)CCN1C(=O)COc2ccccc21
viability: 89.5%
--
molecule: CN1CCCC(OC(=O)COc2ccc(Br)cc2)C1 (stereo not drawn)
viability: 92.5%
--
molecule: COc1ccc(CNC(=O)CN(C(=O)c2ccc(CN3CCOCC3)o2)C2CCCC2)cc1
viability: 85.8%
--
molecule: COc1ccc(CN2CC(C(=O)NCc3ccccn3)CC2=O)cc1 (stereo not drawn)
viability: 95.1%
--
molecule: CC(C)Cn1c(CN2CCCCC2C)nc2c1c(=O)n(C)c(=O)n2C (stereo not drawn)
viability: 77.6%
--
molecule: CC(=O)c1cccc(NC(=O)N2C3CCC2CC(O)(c2cccnc2)C3)c1 (stereo not drawn)
viability: 96.7%
--
molecule: NS(=O)(=O)c1ccc(NCc2c(F)cccc2Cl)cc1
viability: 76.5%
--
molecule: Cc1ccc(-c2cc(C(=O)N3CCCC3)no2)cc1
viability: 93.1%
--
molecule: O=C(CSc1nnc2ncccn12)N1CCCCCC1
viability: 91.3%
--
molecule: Cc1cc(Cl)c(S(=O)(=O)NC2CCCCC2)cc1OCC(=O)Nc1nncs1
viability: 93.6%
--
molecule: CCOc1cc(C(=O)N2CCN=C2SC)cc(OCC)c1OCC
viability: 95.2%
--
molecule: O=C(O)CC1CCCC(c2ccccc2)C1=O (stereo not drawn)
viability: 93%
--
molecule: Cn1c(SCC(=O)N2CCOCC2)nnc1-c1cccc(NC(=O)c2ccccc2F)c1
viability: 80.1%
--
molecule: CS(=O)(=O)N(CC(=O)NCc1ccccn1)c1ccc2c(c1)OCCO2
viability: 87.9%
--
molecule: O=C1C(Cl)=C(N2CCOCC2)C(=O)N1CCc1ccccc1
viability: 71.3%
--
molecule: Cc1cc(=O)n2[nH]c(COc3ccccc3)nc2n1
viability: 94%
--
molecule: CCOC(=O)c1[nH]c2ccc(C)cc2c1N=C(C)N(C)C
viability: 91.4%
--
molecule: CCn1c(C)nc2cc(C(=O)OCCC(F)(F)F)ccc21
viability: 93.7%
--
molecule: CCOC(=O)N1CCN(C(=O)COc2ccc(Br)cc2Cl)CC1
viability: 91.2%
--
molecule: c1ccc(CCc2nc(-c3cccnc3)no2)cc1
viability: 91.8%
--
molecule: CN(C)c1ccc(/C(=N\O)c2ccccc2)cc1
viability: 90.3%
--
molecule: c1ccc(CC2CCN(c3nc4ccccc4n4nnnc34)CC2)cc1
viability: 73.2%
--
molecule: O=S(=O)(c1cccc(-c2nnco2)c1)N1CCCC1
viability: 92.8%
--
molecule: CCOc1cc(S(=O)(=O)NCc2ccccn2)c(C)cc1C
viability: 94.1%
--
molecule: COC(=O)CNC(=O)c1c(C)cc(=O)oc1C
viability: 91.4%
--
molecule: CCC(=O)NC1(C(F)(F)F)C(=O)NC(C)=C1C#N (stereo not drawn)
viability: 92.7%
--
molecule: CC(C)CC(NC(=O)OC(C)(C)C)C(=O)NC(C(=O)NC(C)C(N)=O)C(C)C (stereo not drawn) (Boc-Leu-Val-Ala-NH2; configuration not given here)
viability: 93%
--
molecule: COc1ccc(N2CCN(Cc3nc4c(c(=O)[nH]c(=O)n4C)n3CC(C)=O)CC2)cc1
viability: 84.9%
--
molecule: COC(=O)c1sc(N)c(C(=O)OC)c1CSc1nc2sc3c(c2c(=O)n1C)CCC3
viability: 53.5%
--
molecule: O=C(NC1CCCC1)c1ccc(S(=O)(=O)N2CCCC2)cc1
viability: 95%
--
molecule: CCC(C)NC(=O)CC1Oc2ccc(C)cc2NC1=O (stereo not drawn)
viability: 94.2%
--
molecule: O=C(CN1C(=O)CCSc2ccccc21)Nc1ccc(F)cc1
viability: 97.5%
--
molecule: COc1ccc(OC)c(C2=NOC(C(=O)Nc3cccnc3)C2)c1 (stereo not drawn)
viability: 83.2%
--
molecule: COc1ccc(/C(O)=C2/C(=O)C(=O)N(CC3CCCO3)C2c2cccc(OC)c2)cc1 (stereo not drawn)
viability: 86.5%
--
molecule: Cc1nnc(SCC(=O)NCCN2C(=O)CSC2=O)s1
viability: 100%
--
molecule: Cc1cc(C)n(CCCNC(=O)c2ccc3c(c2)NC(=O)CS3)n1
viability: 86.3%
--
molecule: Cc1nc(SCC#N)c2c(C)c(C)sc2n1
viability: 88.6%
--
molecule: Nc1scc(-c2ccncc2)c1Cl
viability: 87.7%

Where these numbers come from: PubChem BioAssay
